- System: HEPG2
- assay_details: Euclidean distance of Cell Painting phenotypic profile (signed KS, 77 features) to DMSO centroid (dimensionless distance); 5 or 10 uM (library dependent); higher = stronger phenotypic change vs DMSO (phenoactivity)
- conditions: 48 h
Rule: Euclidean distance under 0.7 gives criterion not met, otherwise criterion met.

Has `COc1cccc(-c2cc(=O)c3ccccc3o2)c1N` a recorded Euclidean distance greater than or equal to 0.7?
criterion met

Exam item: decide whether the reported Euclidean distance for N[C@@H](CCC(=O)O)C(=O)O [(S)-Glutamic acid] is at least 0.7.
criterion met

Decide: Euclidean distance of CC(=O)O[C@@]12CO[C@@H]1C[C@H](O)[C@@]1(C)C(=O)[C@H](O)C3=C(C)[C@@H](OC(=O)[C@H](O)[C@@H](NC(=O)OC(C)(C)C)c4ccccc4)C[C@@](O)([C@@H](OC(=O)c4ccccc4)[C@H]21)C3(C)C [Docetaxel Trihydrate] >= 0.7?
criterion met

In plain terms: is recorded Euclidean distance at least 0.7 for Oc1c(Br)cc(Br)c2cccnc12 [Broxyquinoline] ?
criterion met

Answer whether Euclidean distance of CC1CS(=O)(=O)CCN1/N=C/c1ccc([N+](=O)[O-])o1 (stereo not given) [Nifurtimox] is greater than or equal to 0.7.
criterion met

Does the compound O=C1C[C@@H](c2ccc(O[C@@H]3O[C@H](CO)[C@@H](O)[C@H](O)[C@H]3O)cc2)Oc2cc(O)ccc21 [Liquiritin] have recorded Euclidean distance that is 0.7 or more?
criterion not met

Does the compound O=C(O)CCCCCCCC(=O)O [Azelaic acid] have recorded Euclidean distance that is 0.7 or more?
criterion met

State whether the measured Euclidean distance reaches 0.7, counting equality as reaching it, for `Cc1ccc(S(=O)(=O)Cc2nc(-c3ccc(C(=O)NCc4cccnc4)cc3)oc2C)cc1`
criterion met

Kindly determine if Euclidean distance recorded for NS(=O)(=O)c1cc(C2(O)NC(=O)c3ccccc32)ccc1Cl (stereo not given) [Chlorthalidone] is above or exactly 0.7.
criterion not met

Please indicate if the recorded Euclidean distance for CCn1nc(C(=O)O)c(=O)c2cc3c(cc21)OCO3 [Cinoxacin] meets or exceeds 0.7.
criterion not met

---

Assignment: determine reported Euclidean distance for the given compounds.
- Test system: FB
- assay_details: Euclidean distance of Cell Painting phenotypic profile (signed KS, 77 features) to DMSO centroid (dimensionless distance); 5 or 10 uM (library dependent); higher = stronger phenotypic change vs DMSO (phenoactivity)
- conditions: 48 h
Counter-ions that a name gives are not always drawn.
The reply should be a number, written without any unit.

Quick check: Euclidean distance of `COc1ccc2c3c1O[C@H]1C[C@@H](O)C=C[C@@]31CCN(C)C2` ?
0.959

Bench note: what Euclidean distance did `CC(C)(S)[C@@H](N)C(=O)O` show?
1.13

Would you mind telling me what Euclidean distance value was observed for CCOC(=O)[C@H](CCc1ccccc1)N[C@@H](C)C(=O)N(CC(=O)O)C1Cc2ccccc2C1 [Delapril Hydrochloride] ?
1

Dear colleague, I am looking for the recorded Euclidean distance of the following compound: Oc1cc(O)c2c(c1)OC(c1ccc(O)c(O)c1)C(O)C2 (single isomer, unassigned; (+)) [(+)-Catechin]
0.842

Given the compound `C[C@]12CCC3=C4CCC(=O)C=C4CC[C@H]3[C@@H]1CC[C@@]2(O)CC#N` , what is its reported Euclidean distance?
1.08

Return reported Euclidean distance; argument: `CC(=O)[C@@]1(O)CC[C@H]2[C@@H]3CCC4=CC(=O)CCC4=C3[C@@H](c3ccc(N(C)C)cc3)C[C@@]21C`
1.05

Any idea what Euclidean distance was measured for `COc1ccccc1N1CCN(CCN2C(=O)CC3(CCCC3)CC2=O)CC1` ?
1.24

Please report the recorded Euclidean distance for `COc1ccc(-c2ccc3ncc4c(c3c2)n(-c2ccc(N3CCNCC3)c(C(F)(F)F)c2)c(=O)n4C)cn1` .
6.11

The measurements presented in this section are drawn from the supplement of paper PMC10127200.
